# assayed system: HIV-1 RT wild-type enzyme (Human immunodeficiency virus type 1 group M subtype B (isolate HXB2) (HIV-1), UniProt P04585)
# test method notes: HIV-1 reverse transcriptase inhibitory activity (RT polymerase assay)
# Type: biochemical
# condition details: HIV-1 RT wild-type enzyme 83 pM; RNA-dependent DNA polymerase activity; read-out: IC50
property label: IC50 (nM)
Write the answer as a number in nM, unit excluded.

{"molecular string": "CS(=O)(=O)c1ccc(-c2cc(Cn3cnc(C(F)(F)F)c(Oc4cc(Cl)cc(C#N)c4)c3=O)n[nH]c2=O)cc1", "IC50 (nM)": 12}
{"molecular string": "N#Cc1cc(Cl)cc(Oc2c(C(F)(F)F)ncn(Cc3cnc(-c4ccn[nH]4)[nH]c3=O)c2=O)c1", "IC50 (nM)": 9}
{"molecular string": "N#Cc1cc(Cl)cc(Oc2c(C(F)(F)F)ncn(Cc3cc(C(F)F)n[nH]c3=O)c2=O)c1", "IC50 (nM)": 4}
{"molecular string": "Cn1cc(-c2cc(Cn3cnc(C(F)(F)F)c(Oc4cc(Cl)cc(C#N)c4)c3=O)n[nH]c2=O)cn1", "IC50 (nM)": 7}

Note: attention shifts to another entry.
Need IC50 of `Cc1ccc(-c2cc(Cn3cnc(C(F)(F)F)c(Oc4cc(Cl)cc(C#N)c4)c3=O)n[nH]c2=O)c(F)c1` , thanks.
7

Cited source: patent US9718819B2
